Target: human GLP-1 receptor (Homo sapiens (Human), UniProt P43220)
Sequence (P43220 24-463): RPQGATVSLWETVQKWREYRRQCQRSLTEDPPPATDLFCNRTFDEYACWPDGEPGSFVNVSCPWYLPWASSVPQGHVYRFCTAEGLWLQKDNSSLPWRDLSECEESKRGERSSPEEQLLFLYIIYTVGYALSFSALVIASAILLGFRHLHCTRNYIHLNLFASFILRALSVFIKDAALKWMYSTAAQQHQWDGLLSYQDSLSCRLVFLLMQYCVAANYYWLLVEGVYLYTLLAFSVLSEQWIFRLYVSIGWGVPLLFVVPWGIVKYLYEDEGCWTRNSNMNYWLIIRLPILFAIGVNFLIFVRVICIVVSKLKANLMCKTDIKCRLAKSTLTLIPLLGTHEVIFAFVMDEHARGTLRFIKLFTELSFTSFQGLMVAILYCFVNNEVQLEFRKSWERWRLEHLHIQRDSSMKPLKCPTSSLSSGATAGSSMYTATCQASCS
Settings: read-out: Mean EC50; cAMP, HTRF detection, 30 min at 37° C., HEK-293 cells expressing cloned human GLP-1 receptor
metric: EC50 (nM)

// solved cases for EC50 follow
- molecule: "Cc1ncoc1C(=O)N1Cc2cc3c(cc2C[C@H]1C(=O)N[C@@H](Cc1ccc(Oc2ccnc(C)c2C)cc1)C(=O)O)OC[C@H](c1ccc(OCc2ccc(Cl)c(Cl)c2)cc1)O3 [Example 263]"
  reported-value: 187
- molecule: "Cc1nc(N2CCOCC2)ccc1S(=O)(=O)N1Cc2cc3c(cc2C[C@H]1C(=O)N[C@@H](Cc1ccc(-c2ccc(C#N)cc2)cc1)C(=O)O)OCC(c1ccc(OCc2ccc(Cl)c(Cl)c2)cc1)O3 (stereo in doubt) [Example 133]"
  reported-value: 54
- molecule: "Cc1nc(C(=O)N2Cc3cc4c(cc3C[C@H]2C(=O)N[C@@H](Cc2ccc(-c3ccnc(C)c3C)cc2)C(=O)O)OC[C@H](c2ccc(OCCc3ccc(Cl)c(Cl)c3)cc2)O4)c(C)o1 [Example 387]"
  reported-value: 34
- molecule: "Cc1nccc(Oc2ccc(C[C@H](NC(=O)[C@@H]3Cc4cc5c(cc4CN3C(=O)NC3CCC(F)(F)CC3)O[C@@H](c3ccc(OCc4ccc(Cl)c(Cl)c4)cc3)CO5)C(=O)O)cc2)c1C [Example 352]"
  reported-value: 338
- molecule: "Cc1nccc(Oc2ccc(C[C@H](NC(=O)[C@@H]3Cc4cc5c(cc4CN3C(=O)N[C@@H](C)c3ccccc3)O[C@@H](c3ccc(OCc4ccc(Cl)c(Cl)c4)cc3)CO5)C(=O)O)cc2)c1C [Example 335]"
  reported-value: 115
- molecule: "Cc1nccc(-c2ccc(C[C@H](NC(=O)[C@@H]3Cc4cc5c(cc4CN3C(=O)[C@H]3CCCN3C(=O)OC(C)(C)C)O[C@@H](c3ccc(OCc4ccc(Cl)c(Cl)c4)cc3)CO5)C(=O)O)cc2)c1C [Example 279]"
  reported-value: 15
- molecule: "Cc1nccc(Oc2ccc(C[C@H](NC(=O)[C@@H]3Cc4cc5c(cc4CN3C(=O)N[C@H](C)c3ccc(F)cc3)O[C@@H](c3ccc(OCc4ccc(Cl)c(Cl)c4)cc3)CO5)C(=O)O)cc2)c1C [Example 337]"
  reported-value: 145
- molecule: "Cc1ccccc1C(=O)N1Cc2cc3c(cc2C[C@H]1C(=O)N[C@@H](Cc1ccc(-c2ccnc(C)c2C)cc1)C(=O)O)OC[C@H](c1ccc(OCc2ccc(Cl)c(Cl)c2)cc1)O3 [Example 151]"
  reported-value: 18
- molecule: "CC[C@H]1CC[C@H](Oc2ccc([C@H]3COc4cc5c(cc4O3)CN(C(=O)c3nc(C)oc3C)[C@H](C(=O)N[C@@H](Cc3ccc(-c4ccnc(C)c4C)cc3)C(=O)O)C5)cc2)CC1 [Example 373]"
  reported-value: 187
- molecule: "Cc1nccc(-c2ccc(C[C@H](NC(=O)[C@@H]3Cc4cc5c(cc4CN3Cc3nccn3C)O[C@@H](c3ccc(OCc4ccc(Cl)c(Cl)c4)cc3)CO5)C(=O)O)cc2)c1C [Example 230]"
  reported-value: 18

P. CNc1nc(C)c(S(=O)(=O)N2Cc3cc4c(cc3C[C@H]2C(=O)N[C@@H](Cc2ccc(-c3ccc(C#N)cc3)cc2)C(=O)O)OC[C@@H](c2ccc(OCc3ccc(Cl)c(Cl)c3)cc2)O4)s1 [Example 61]
Q. Cc1nc(C(=O)N2Cc3cc4c(cc3C[C@H]2C(=O)N[C@@H](Cc2ccc(-c3ccnc(C)c3C)cc2)C(=O)O)OC[C@H](c2ccc(OCc3cc(Cl)ccc3Cl)cc2)O4)c(C)o1 [Example 362]
R. Cc1nccc(-c2ccc(C[C@H](NC(=O)[C@@H]3Cc4cc5c(cc4CN3Cc3nccs3)O[C@@H](c3ccc(OCc4ccc(Cl)c(Cl)c4)cc3)CO5)C(=O)O)cc2)c1C [Example 231]
S. Cc1nccc(-c2ccc(C[C@H](NC(=O)[C@@H]3Cc4cc5c(cc4CN3C(=O)N[C@H](C)c3ccccc3)O[C@@H](c3cccc(OCc4ccc(Cl)c(Cl)c4)c3)CO5)C(=O)O)cc2)c1C [Example 414]
### Prompt Sort low-to-high on EC50, please. In your reply, arrange the labels in the requested order.
### Response Q, R, P, S
(Q: 12 nM, R: 39 nM, P: 73 nM, S: 191 nM)

====

Target: human GLP-1 receptor (Homo sapiens (Human), UniProt P43220)
Conditions: read-out: Mean EC50; cAMP, HTRF detection, 30 min at 37° C., HEK-293 cells expressing cloned human GLP-1 receptor
metric: EC50 (nM)

- compound: "CCNc1ccc(S(=O)(=O)N2Cc3cc4c(cc3C[C@H]2C(=O)N[C@@H](Cc2ccc(-c3ccc(C#N)cc3)cc2)C(=O)O)OCC(c2ccc(OCc3ccc(Cl)c(Cl)c3)cc2)O4)c(C)n1 (stereo in doubt)"
  EC50 (nM): 284

I. Cc1nccc(-c2ccc(C[C@H](NC(=O)[C@@H]3Cc4cc5c(cc4CN3C(=O)C(C)(C)C)O[C@@H](c3ccc(OCc4ccc(Cl)c(Cl)c4)cc3)CO5)C(=O)O)cc2)c1C
II. Cc1ccccc1CN1Cc2cc3c(cc2C[C@H]1C(=O)N[C@@H](Cc1ccc(-c2ccnc(C)c2C)cc1)C(=O)O)OC[C@H](c1ccc(OCc2ccc(Cl)c(Cl)c2)cc1)O3
III. Cc1nccc(Oc2ccc(C[C@H](NC(=O)[C@@H]3Cc4cc5c(cc4CN3C(=O)NC3CCCCC3)O[C@@H](c3ccc(OCc4ccc(Cl)c(Cl)c4)cc3)CO5)C(=O)O)cc2)c1C
IV. Cc1nc(NC(=O)[C@@H]2CCCN2)sc1S(=O)(=O)N1Cc2cc3c(cc2C[C@H]1C(=O)N[C@@H](Cc1ccc(-c2ccc(C#N)cc2)cc1)C(=O)O)OCC(c1ccc(OCc2ccc(Cl)c(Cl)c2)cc1)O3 (stereo partly shown)
### Prompt Sort low-to-high on EC50, please. In your reply, arrange the labels in the requested order.
### Response II, I, III, IV
(II: 4 nM, I: 80 nM, III: 271 nM, IV: 477 nM)

1. Cc1nc(N)ccc1S(=O)(=O)N1Cc2cc3c(cc2C[C@H]1C(=O)N[C@@H](Cc1ccc(-c2ccc(C#N)cc2)cc1)C(=O)O)OC[C@H](c1ccc(OCc2ccc(Cl)c(Cl)c2)cc1)O3
2. Cc1ccc(C(=O)N2Cc3cc4c(cc3C[C@H]2C(=O)N[C@@H](Cc2ccc(-c3ccnc(C)c3C)cc2)C(=O)O)OC[C@H](c2ccc(OCc3ccc(Cl)c(Cl)c3)cc2)O4)s1
### Prompt 1 or 2 : whose EC50 is greater? API: response body contains the label of the selected item.
### Response 1
(1: 315 nM, 2: 81 nM)

====

Molecular target: human GLP-1 receptor (Homo sapiens (Human), UniProt P43220)
Details: read-out: Mean EC50; cAMP, HTRF detection, 30 min at 37° C., HEK-293 cells expressing cloned human GLP-1 receptor
metric: EC50 (nM)

- molecule: "Cc1nccc(-c2ccc(C[C@H](NC(=O)[C@@H]3Cc4cc5c(cc4CN3Cc3ncccc3F)O[C@@H](c3ccc(OCc4ccc(Cl)c(Cl)c4)cc3)CO5)C(=O)O)cc2)c1C"
  reported-value: 22

I. CC[C@@H](c1ccccc1)N1Cc2cc3c(cc2C[C@H]1C(=O)N[C@@H](Cc1ccc(-c2ccnc(C)c2C)cc1)C(=O)O)OC[C@H](c1ccc(OC2CC4CCC2C4)cc1)O3 (some centres unmarked)
II. CNc1nc(C)c(S(=O)(=O)N2Cc3cc4c(cc3C[C@H]2C(=O)N[C@@H](Cc2ccc(-c3ccc(C#N)cc3)cc2)C(=O)O)OC[C@H](c2ccc(OCc3ccc(Cl)c(Cl)c3)cc2)O4)s1
### Prompt I or II : whose EC50 is greater? API: response body contains the label of the selected item.
### Response II
(II: 263 nM, I: 145 nM)

P. CC(=O)Nc1ccc(S(=O)(=O)N2Cc3cc4c(cc3C[C@H]2C(=O)N[C@@H](Cc2ccc(-c3ccc(C#N)cc3)cc2)C(=O)O)OCC(c2ccc(OCc3ccc(Cl)c(Cl)c3)cc2)O4)cc1 (stereo in doubt)
Q. Cc1nc(N)sc1S(=O)(=O)N1Cc2cc3c(cc2C[C@H]1C(=O)N[C@@H](Cc1ccc(-c2ccnc(C)c2C)cc1)C(=O)O)OC[C@H](c1ccc(OCc2ccc(Cl)c(Cl)c2)cc1)O3
### Prompt P or Q : whose EC50 is greater? API: response body contains the label of the selected item.
### Response P

====

Biological target: human GLP-1 receptor (Homo sapiens (Human), UniProt P43220)
Settings: read-out: Mean EC50; cAMP, HTRF detection, 30 min at 37° C., HEK-293 cells expressing cloned human GLP-1 receptor
metric: EC50 (nM)

- compound: "Cc1nc(NCC2CCC2)sc1S(=O)(=O)N1Cc2cc3c(cc2C[C@H]1C(=O)N[C@@H](Cc1ccc(-c2ccc(C#N)cc2)cc1)C(=O)O)OCC(c1ccc(OCc2ccc(Cl)c(Cl)c2)cc1)O3 (stereo in doubt)"
  target-entity: "human GLP-1 receptor (Homo sapiens (Human), UniProt P43220)"
  metric: "EC50"
  reported-value: 321
- compound: "CC[C@@H](c1ccccc1)N1Cc2cc3c(cc2C[C@H]1C(=O)N[C@@H](Cc1ccc(Oc2ccncc2)cc1)C(=O)O)OC[C@H](c1ccc(OCc2ccc(Cl)c(Cl)c2)cc1)O3"
  target-entity: "human GLP-1 receptor (Homo sapiens (Human), UniProt P43220)"
  metric: "EC50"
  reported-value: 74
- compound: "Cc1nc(C(=O)N2Cc3cc4c(cc3C[C@H]2C(=O)N[C@@H](Cc2ccc(-c3ccnc(C)c3C)cc2)C(=O)O)OC[C@H](c2cccc(OCc3ccc(Cl)c(Cl)c3)c2)O4)c(C)o1"
  target-entity: "human GLP-1 receptor (Homo sapiens (Human), UniProt P43220)"
  metric: "EC50"
  reported-value: 75
- compound: "Cc1nc(C(=O)N2Cc3cc4c(cc3C[C@H]2C(=O)N[C@@H](Cc2ccc(-c3ccnc(C)c3C)cc2)C(=O)O)OC[C@H](c2ccc(OCc3cc(Cl)cc(Cl)c3)cc2)O4)c(C)o1"
  target-entity: "human GLP-1 receptor (Homo sapiens (Human), UniProt P43220)"
  metric: "EC50"
  reported-value: 26

P. Cc1cccc(C(=O)N2Cc3cc4c(cc3C[C@H]2C(=O)N[C@@H](Cc2ccc(-c3ccnc(C)c3C)cc2)C(=O)O)OC[C@H](c2ccc(OCc3ccc(Cl)c(Cl)c3)cc2)O4)c1
Q. Cc1nc(N)sc1S(=O)(=O)N1Cc2cc3c(cc2C[C@H]1C(=O)N[C@@H](Cc1ccc(-c2ccc(C#N)cc2)cc1)C(=O)O)OC[C@@H](c1ccc(OCc2ccc(Cl)c(Cl)c2)cc1)O3
### Prompt I'm curious whether P or Q has the smaller EC50 number. Which is it? API: response body contains the label of the selected item.
### Response P
